- System: COLO 205
- assayProcedure: Growth inhibition of human tumor cell line COLO 205
- Type: cell-based
- measurementContext: COLO 205 colon carcinoma
experimentalReadout: pIC50
// pIC50 here means minus log10 of the molar concentration (mol/L)

>  <structureAsSmiles>
Clc1nc2c(N3CCSC3)nc(N3CCNCC3)nc2nc1N1CCSC1

>  <experimentalSystem>
COLO 205

>  <pIC50>
5.21

$$$$

Now turn to the next molecule.
Sure, the documented pIC50 for COc1nc2c(N3CCSC3)nc(N3CCNCC3)nc2nc1N1CCSC1 is 5.02

====

- System: COLO 205
- assayProcedure: Growth inhibition of human tumor cell line COLO 205
- Type: cell-based
- measurementContext: Homo sapiens; COLO 205 colon carcinoma
experimentalReadout: IC50 (µM)
The reply should be a number in µM, with the unit left off.

Data point: Clc1nc2c(N3CCCC3)nc(N3CCNCC3)nc2nc1N1CCCC1 ; IC50 = 9.75

Reference for the values: patent US20050054653A1
